method.summary: Single dose PK in rats
Format: in vivo
condition.set: plasma; rat, oral gavage, 30 mg/kg
measure.name: Tmax (min)
Give bare numbers, in min.

| smiles.str | measure.name | value.reported |
| --- | --- | --- |
| O=C(CCc1ccc(OC(F)(F)F)cc1)N1C[C@@H]2CN(C(=O)c3ccc4[nH]nnc4c3)C[C@H]2C1 | Tmax | 30 |

Please give the documented Tmax of CS(=O)(=O)c1cc(Cl)cc(COC(=O)N2C[C@@H]3CN(C(=O)c4ccc5[nH]nnc5c4)C[C@H]3C2)c1
15

* * *

method.summary: In vitro microsomal stability, mouse
Assay type: in vitro ADME
condition.set: mouse microsomes, 1 µM; value of 10 = low clearance, essentially below detection limit
Assignment: determine reported Mic CL m for the given compounds.
One number for each entry, in µL/m/mg prot.

Worked set:
| compound | value.reported |
| --- | --- |
| O=C(CCN1CCN(C(=O)OCc2cc(Cl)cc(Cl)c2)CC1)c1ccc2[nH]c(=O)oc2c1 [Compound 1, reference compound] | 78 |
| O=C(OCc1cc(Cl)cc(Cl)c1)N1CCC2(CC1)CN(C(=O)c1ccc3[nH]nnc3c1)C2 [Compound 9] | 63 |
| O=C(OCc1cc(Cl)cc(Cl)c1)N1CC2(CCN(C(=O)c3ccc4[nH]c(=O)oc4c3)CC2)C1 [Compound 3] | 81 |

Batch request: Mic CL m for each of the following compounds.
1. O=C(OCc1cc(Cl)cc(Cl)c1)N1CC[C@@H]2CN(C(=O)c3ccc4[nH]nnc4c3)C[C@@H]2CC1 [Compound 10]
2. O=C(OCc1cc(Cl)cc(Cl)c1)N1C[C@@H]2CN(C(=O)c3ccc4[nH]nnc4c3)C[C@@H]2C1 [Compound 8]

727
68
